Target: Cy5-labelled Mcl1 (amino acids 171-321) C286S protein (UniProtKB Q07820) (Homo sapiens (Human), UniProt Q07820, C286S)
Sequence (Q07820 171-321 C286S): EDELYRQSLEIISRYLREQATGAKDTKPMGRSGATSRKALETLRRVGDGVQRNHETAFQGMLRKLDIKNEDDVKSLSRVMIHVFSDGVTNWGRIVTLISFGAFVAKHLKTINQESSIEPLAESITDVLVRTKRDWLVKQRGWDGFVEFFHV
Test: Inhibition of Mcl-1 by the fluorescence quenching assay (Example A, Method B)
Format: binding
Text: Fluorescence quenching assay measures the change fluorescence intensity of C-terminally Cy5-labelled Mcl1 (amino acids 171-321) C286S protein (UniProtKB® primary accession number Q07820) having an amino acid sequence: […] The addition of a compound which binds competitively to the same site as the peptide will result in an increase in the fluorescence intensity of the protein due to displacement of the fluorescence quencher. […]
List of log10 Ki values.
Could you please treat all values as log10 of Ki in nM?

Here is how some compounds turned out for log10 Ki.
compound	parameter	endpoint.value
Cc1cc2c(cc1C)[C@]1(CC[C@@](Nc3cccc(Cl)c3)(C(=O)O)CC1)[C@@H](C[C@@H](C)COc1ccnc3ccsc13)C2 [Example 733]	log10 Ki	0.18
CC(=O)OC(C)OC(=O)[C@]1(Nc2cccc(Cl)c2)CC[C@@]2(CC1)c1cc3c(cc1C[C@@H]2C[C@@H](C)COc1ccnc2c1[C@H](C)CCC2)OCO3 (some centres unmarked) [Example 939]	log10 Ki	0.23
C[C@@H](COc1ccnc2c1[C@H](C)CCC2)C[C@H]1Cc2cc3c(cc2[C@]12CC[C@@](Nc1cccc(Cl)c1)(C(=O)O)CC2)OCC[C@H](C)O3 [Example 985]	log10 Ki	-1.02

Endpoint output: log10 Ki of CCC1COc2cc3c(cc2OC1)[C@]1(CC[C@@](Nc2cccc(Cl)c2)(C(=O)O)CC1)[C@@H](C[C@@H](C)COc1ccnc2c1[C@H](C)CCC2)C3 (single isomer, unassigned) [Example 988] . Value? -1.49

And for CC(O)c1ccc2c(c1)[C@]1(CC[C@@](Nc3cccc(Cl)c3)(C(=O)O)CC1)C(C[C@@H](C)COc1ccnc3c1[C@H](C)CCC3)=C2 (some centres unmarked) [Example 857] ? -0.77

###

Target: Mcl-1 protein (UniProtKB Q07820) (Homo sapiens (Human), UniProt Q07820)
Sequence (Q07820 whole entry): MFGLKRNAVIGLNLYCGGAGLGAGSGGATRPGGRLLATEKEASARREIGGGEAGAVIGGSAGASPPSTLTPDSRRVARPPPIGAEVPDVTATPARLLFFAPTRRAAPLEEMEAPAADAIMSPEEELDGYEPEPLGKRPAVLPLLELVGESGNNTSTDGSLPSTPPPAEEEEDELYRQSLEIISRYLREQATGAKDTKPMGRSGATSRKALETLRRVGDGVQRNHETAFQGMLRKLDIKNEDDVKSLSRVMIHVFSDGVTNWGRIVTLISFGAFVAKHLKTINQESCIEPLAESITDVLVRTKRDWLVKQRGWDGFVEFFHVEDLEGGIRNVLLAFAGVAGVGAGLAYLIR
Test: Inhibition of Mcl-1 by the fluorescence polarisation assay (Example A, Method A)
Conditions: fluorescence polarization assay
List of pKi values.
As a rule, pKi stands for the negative log10 of the concentration, concentration in M.

Here is how some compounds turned out for pKi.
> print(dat)
                                   compound                            assayed.system  endpoint.value
1  Cc1ccc(C2=Cc3ccccc3C23CCC(Nc2cccc(Br)c2)(C(=O)O)CC3)cc1Cl (single isomer, unassigned)  Mcl-1 protein (UniProtKB Q07820) (Homo sapiens (Human), UniProt Q07820)            3.94
2  C=CCOC1Cc2ccccc2[C@]12CC[C@@](Nc1cccc(Cl)c1)(C(=O)O)CC2 (stereo partly shown)  Mcl-1 protein (UniProtKB Q07820) (Homo sapiens (Human), UniProt Q07820)            5.42
3  CN1CCN(CCCC2Cc3ccccc3[C@]23CC[C@@](Nc2cccc(Cl)c2)(C(=O)O)CC3)CC1=O (stereo partly shown)  Mcl-1 protein (UniProtKB Q07820) (Homo sapiens (Human), UniProt Q07820)            5.13

Endpoint output: pKi of `CC1(C)[C@H]2C=C(C3=Cc4ccccc4[C@]34CC[C@@](Nc3cccc(Cl)c3)(C(=O)O)CC4)[C@]1(C)CC2` . Value? 4.44
